Kindly supply the reported normalized growth values for the records listed here.
assay info: chemical genetic growth profiling, strain panel (AID 1159580);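 further: tested at 20 µM; growth read once vehicle control cultures reached saturation at 30 °C; 1 = growth at the plate median or of vehicle wells; lower values mean less growth of the strain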
reported conditions: S. cerevisiae deletion strains, growth OD, locus YCL061C, strain MRC1, active compounds read low
Among all 5,500 compounds or so, about 2,000 (36%) were called active. About 18% were inconclusive and are not listed. The list shows a part of the results.
Respond with the number and no other words.

Endpoint output: normalized growth of Cn1c(=O)c2c(ncn2CC(O)CO)n(C)c1=O (stereo not drawn) . Value? 1

What value of normalized growth has been recorded for this entry: Clc1ccc(C(OCCN2CCCCC2)c2ccccc2)cc1 (stereo not drawn) 1.02

Look up normalized growth for this compound: Cc1ccccc1C(OCCN(C)C)c1ccccc1 (stereo not drawn) 1.01

Would you kindly share the measured normalized growth for "Cc1onc(-c2c(Cl)cccc2Cl)c1-c1nc(-c2ccc3c(c2)OCCO3)cs1" ? 1

Look up normalized growth: "O=C(CCc1nc(-c2ccc(Cl)cc2)no1)NNS(=O)(=O)c1cc(Cl)c(Cl)cc1Cl" 1.01

Entry "O=[N+]([O-])c1ccc(S(=O)(=O)N2CCCCC2)cc1" : reported normalized growth = ? 0.976

Form field: reported normalized growth of CN(C)CCCC1(c2ccc(F)cc2)OCc2cc(C#N)ccc21 (stereo not drawn) 0.987

Give its normalized growth value. Item: N=c1ccn2c(n1)OC1C(O)C(CO)OC12 (stereo not drawn) 0.986

* * *

assay info: chemical genetic growth profiling, strain panel (AID 1159580);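 further: tested at 20 µM; growth read once vehicle control cultures reached saturation at 30 °C; 1 = growth at the plate median or of vehicle wells; lower values mean less growth of the strain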
reported conditions: S. cerevisiae deletion strains, growth OD, locus YBR136W, strain MEC1, active compounds read low
Out of some 5,500 compounds screened, about 2,000 (36%) were called active. Not shown: some 18% with an inconclusive outcome. The list shows a part of the results.
recorded metric: normalized growth
Output spec: single numeric token, no unit.

Record request: normalized growth value, item "COc1cc(Cl)ccc1N/N=C(/C#N)C(N)=O" 0.104

Sample "CC(=O)c1ccc(Cl)c(NS(=O)(=O)c2cc(Cl)c(Cl)cc2Cl)c1" — what was its normalized growth? 0.914

Form field: reported normalized growth of "O=C(Oc1cccc2[nH]ccc12)c1ccc(C(F)(F)F)cc1" 0.968

Quick check: normalized growth of "COc1cccc(C2CCN(C(=O)c3cccc4ccccc34)CC2)c1" ? 0.981

Recorded normalized growth of "CC1(C)CC(=O)C=C(Sc2nc3ccccc3o2)C1" , please. 0.965

Find the recorded normalized growth belonging to COc1ccc(C(CC(=O)c2ccccc2)Sc2ccccc2N)cc1OC (stereo not given) and report it. 0.972

Entry "Cc1nn(C)c(C(=O)Sc2ccc(OC(F)(F)F)cc2)c1[N+](=O)[O-]" has what normalized growth? 0.984

I am curious: what normalized growth value has been reported for "O=C(/C=C/c1ccc2c(c1)OCO2)Nc1ccc(Br)cc1" ? 0.961

Name the reported normalized growth value associated with the compound "N/C(Cn1ccc(C(F)(F)F)n1)=N/OS(=O)(=O)c1cccc(Cl)c1Cl" 0.985

Entry "Cc1ccc(Nc2ccnc3cc(Cl)ccc23)cc1F" : reported normalized growth = ? 0.995

* * *

assay info: chemical genetic growth profiling, strain panel (AID 1159580);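 further: tested at 20 µM; growth read once vehicle control cultures reached saturation at 30 °C; 1 = growth at the plate median or of vehicle wells; lower values mean less growth of the strain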
reported conditions: S. cerevisiae deletion strains, growth OD, locus YOL136C, strain PFK27, active compounds read low
Among all 5,500 compounds or so, about 2,000 (36%) were called active. Inconclusive results (about 18%) are left out. The list shows a part of the results.
I'd be grateful if you could share measured normalized growth for these entries.

Please give the measured normalized growth for this compound: "Oc1c(Cl)cc(Cl)cc1C=Nc1nc(-c2ccc3ccccc3c2)cs1" 0.537 (active)

May I ask what normalized growth has been recorded for "N/C(CCSc1ccc(Cl)cc1)=N/OC(=O)Nc1ccc(Cl)cc1" ? 0.125 (active)

Fill in: normalized growth of CCOC(=O)C1C(c2c(F)cccc2Cl)C(C(=O)OCC)C(O)(C(F)(F)F)NC1(O)C(F)(F)F (centres undefined) is ___ 0.979 (inactive)

Given the compound "Cc1cc(C(=O)NNS(=O)(=O)c2ccc(F)c(Cl)c2)nn1-c1c(Cl)cc(Cl)cc1Cl" , what is its reported normalized growth? 1.04 (inactive)

# normalized growth lookup, item "Fc1cc(I)ccc1Nc1ccnc2cc(Cl)ccc12" 0.925 (inactive)

What value of measured normalized growth is listed for "O=C(/C=C/c1ccc2c(c1)OCO2)Nc1ccc(Br)cc1" ? 0.889 (inactive)

Please report the recorded normalized growth for "O=C(Nc1cccc(C(F)(F)F)c1)c1cncc(C#Cc2ccccc2)c1" . 0.899 (inactive)

Entry under review: "CCCN(CCC)C(=S)NC(=O)c1cccc([N+](=O)[O-])c1" . Reported normalized growth? 0.929 (inactive)

So what's the measured normalized growth for this one? "O=[N+]([O-])c1ccc(ON=C2CCCCC2)c([N+](=O)[O-])c1" 0.878 (inactive)

Entry under review: "COc1cccc(C2CCN(C(=O)c3cccc4ccccc34)CC2)c1" . Reported normalized growth? 0.898 (inactive)

What value of measured normalized growth is listed for "O=[N+]([O-])c1ccc(-c2noc(-c3ccno3)n2)o1" ? 0.124 (active)

Query (compound): "N/C(Cn1ccc(C(F)(F)F)n1)=N/OS(=O)(=O)c1cccc(Cl)c1Cl" ; field requested: normalized growth 1.02 (inactive)

What does the record list as normalized growth for "CC(C)(C)c1ccc(N/N=C(\C#N)C(N)=O)cc1" ? 0.122 (active)

Entry "Cc1ccc(Nc2ccnc3cc(Cl)ccc23)cc1F" has what normalized growth? 0.934 (inactive)
